src = the supplement of paper PMC7125110

B1: glmS ribozyme (parent)
chain: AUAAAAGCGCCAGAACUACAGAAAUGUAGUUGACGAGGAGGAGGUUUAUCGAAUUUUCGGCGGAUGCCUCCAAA

- Variants of: B1
- assay-procedure: self-cleavage kobs at 10000 uM GlcN6P; higher = faster cleavage; RNA array
- run-conditions: with glucosamine-6-phosphate
Variants at the floor of the assay were thinned out.
experimental-readout: self-cleavage kobs at 10000 uM GlcN6P (s⁻¹)
Give bare numbers, in s⁻¹.

Guide cases for self-cleavage kobs at 10000 uM GlcN6P, answers given:
U56A U69C    0.00286
C16A C67U    0.000261
C11U A39U    0.00102
U65A G66A    0.000577
G44A U45G    0.0033

# evaluate next
Please report the measured self-cleavage kobs at 10000 uM GlcN6P for A48U A64G
0.00214
